tested on: M19-MEL; assay: NCI tumour cell line growth inhibition, 48 h
Active and inactive are the calls of the source. Cut-off read from the data, not from the text of the source: active = GI50 up to about 1.1 µM and inactive = higher.
READOUT: GI50

The cases that follow already have their GI50 on record.
> print(dat)
                                   compound  subject.of.test           meas.value
1      COc1ccc2c(-c3cc4ccccc4o3)cc(=O)oc2c1          M19-MEL  > 100 µM (inactive)
2  C[C@]12C=CC(=O)C=C1[C@@H](F)C[C@H]1[C@@H]3CC[C@](O)(C(=O)CO)[C@@]3(C)C[C@H](O)[C@@]12F          M19-MEL  > 100 µM (inactive)

# GI50 lookup, item C=C1C(=O)OC2/C=C(\C(=O)O)CC/C=C(\C)CC(OC(=O)/C=C(\C)CC)C12 (stereo not given)
15.6 µM (inactive)

# GI50 lookup, item NS(=O)(=O)c1ccc(NC(=O)c2cccn3c(=O)c4ccccc4nc23)cc1
> 100 µM (inactive)

# GI50 lookup, item O=C(Nc1c(O)[nH]c(=S)[nH]c1=O)c1ccco1
> 100 µM (inactive)

----------
Readings of GI50 for the listed compounds
test system: T47D; experiment: NCI tumour cell line growth inhibition, 48 h
Activity calls are given as the source filed them. Rule as the data show it: active = GI50 up to about 1.1 µM and inactive = higher.

The cases that follow already have their GI50 on record.
> print(dat)
                                   compound  subject.of.test  readout           meas.value
1             C=Cc1nc2c(Cl)ncnc2n1Cc1ccccc1             T47D     GI50   2.59 µM (inactive)
2  COC(=O)C1(Cc2ccc3c(c2)CCC3)Cc2ccc3c(c2C1=O)CCC3 (stereo not given)             T47D     GI50   4.35 µM (inactive)
3  CN1C[C@H]2[C@@H](C1=O)[C@H](c1ccc([N+](=O)[O-])cc1)ON2C             T47D     GI50  > 100 µM (inactive)

Fill in the recorded GI50 for this compound, with T47D as test system: CCOC(=O)c1ccc(Nc2nc3cc(C(F)(F)F)ccc3nc2-c2ccccc2)cc1
35.7 µM (inactive)

Fill in the recorded GI50 for this compound, with T47D as test system: COc1ccc(C[C@H]2NC[C@H](OC(C)=O)[C@H]2OC(C)=O)cc1
0.112 µM (active)

Fill in the recorded GI50 for this compound, with T47D as test system: CC(=O)OC1COC(n2c(-c3ccc(Cl)cc3)cc(-c3ccccc3)c(C#N)c2=S)C(OC(C)=O)C1OC(C)=O (stereo not given)
14.1 µM (inactive)

Fill in the recorded GI50 for this compound, with T47D as test system: Nc1ncnc2c1ccn2CC=C(CO)CO
> 100 µM (inactive)

Fill in the recorded GI50 for this compound, with T47D as test system: CC(=O)Nc1cccc(N2C(=O)/C(=C\c3cccc(Oc4ccccc4)c3)SC2c2ccccc2)c1 (stereo not given)
78.7 µM (inactive)

Fill in the recorded GI50 for this compound, with T47D as test system: O=C1/C(=C/c2ccc(Cl)cc2)N=C(c2ccccc2)N1c1nc2c(Cl)cc(Cl)cc2s1
25.1 µM (inactive)

Fill in the recorded GI50 for this compound, with T47D as test system: Cc1oc2ccccc2c(=O)c1Cn1nnc2ccccc21
10.6 µM (inactive)
